Experiment: melting temperature; fluorescence melt of hairpins on a sequencing array, two-state fit, raised by 9.35 °C to match UV melts
Conditions: sodium 0.088 M
Assignment: determine reported Tm for the given sequences.
Write the quantity with the unit trailing the number.

Example cases with answers are listed next.
item sequence: GCGGACGAAAGTCGGCGC ((((((....)))..)))
Tm: 68 °C
//
item sequence: GATCCGGATCGGATC ((((((...))))))
Tm: 55.6 °C
//
item sequence: GTTGACGAAAGTCCAAAC ((((((....)))..)))
Tm: 24.3 °C
//
item sequence: GGCCACGAAAGTGCGGCC ((((((....)))..)))
Tm: 55.6 °C

Provide each entry's Tm from the list below.
1. GGGTGCGAAAGCATACCC ((((((....)))..)))
2. GGTAGTGGAAACACTGCC ((.((((....)))).))
3. GCTGAAGGAAACTTCAAC (.(((((....))))).)
4. GACTCACGAAAGTGGTC (((.(((....))))))
5. GATATCCGAAAGGACATC (((.(((....))).)))

## Result
1. 53.5 °C
2. 53 °C
3. 29.8 °C
4. 46.6 °C
5. 38.9 °C

Provide each entry's Tm from the list below.
1. GTCATCGAAAGATCAGAC ((((((....)))..)))
2. GGGCCGGGAAACCGGCTC (.(((((....))))).)

## Result
["26.5 °C", "66.8 °C"]

Provide each entry's Tm from the list below.
1. GGGACCGCGAAAGCGCCC (((..(((....))))))
2. GGGATAACGAAAGTTCCC (((..(((....))))))
3. GCGAGCGAAAGCTTTCGC ((((((....)))..)))
4. GGGTCTGGAAACAAACCC ((((.((....)).))))
5. GATCGAACCGTCGATC ((((((....))))))
6. GTGAAGCGAAAGCTACAC (((.(((....))).)))
7. GCGGAGCGAAAGCTAGGC ((..(((....)))..))

## Result
39.2 °C
42.4 °C
50.3 °C
37.9 °C
49.5 °C
55.7 °C
41.9 °C

Provide each entry's Tm from the list below.
1. GATCTCTGACGAGATC ((((((....))))))
2. GCTTAGACGAAAGTCAGC (((..(((....))))))
3. GCAGTGCGAAAGCCCGGC ((.(.((....)).).))
4. GGCTATGGAAACATAGTC (.(((((....))))).)
5. GGCAGATCGAAAGATGCC (((..(((....))))))

## Result
["50 °C", "41.6 °C", "45 °C", "46.5 °C", "49.4 °C"]

###

Assay: folding enthalpy; higher = less favourable; fluorescence melt of hairpins on a sequencing array, two-state fit
Conditions: sodium 0.088 M
measure: folding enthalpy (kcal/mol)
One number for each entry, in kcal/mol.

Example cases with answers are listed next.
item sequence: GATCACGATTGTGATC ((((((....))))))
folding enthalpy, kcal/mol: -33.2
--
item sequence: GGTCTCGAAAGAGTGACC ((((((....)))..)))
folding enthalpy, kcal/mol: -24.5
--
item sequence: GGCAGCGGAAACGCCACC ((..(((....)))..))
folding enthalpy, kcal/mol: -13.9
--
item sequence: GATCGGCATTCCGATC ((((((....))))))
folding enthalpy, kcal/mol: -37.6

Provide each entry's folding enthalpy from the list below.
1. GCCTTTCGAAAGAACGGC (((.(((....))).)))
2. GCTTGGCGAAAGCCTGGC ((..(((....)))..))

## Result
1: -39.5; 2: -17.4
